tested on: MS2 coat protein; experiment: apparent KD of MS2 coat protein; higher = weaker reporter binding; settings: Eterna round: R107; input ligand: theophylline 2 mM
Short version: apparent KD of MS2 coat protein at least 80 nM is 1, less is 0.

Threshold query (apparent KD of MS2 coat protein >= 80 nM) on CCUAUGCAGUCGGCCGCCACUGUACAUGAGGAUCACCCAUGUUCCAAAAUAAAAGGAACUGAAAUCAGGACCGGGACUGUAUAGG [Ex Tryptophan B 1]
0

Likewise for CUAUAAGUAACUGAUACCAGUGUACUGACAUGAGGAUCACCCAUGUUGGGUUUUGUUGUACACCCUUGGCAGCAGAAUCUUAUAG [AstrosExyTheB#14] ?
1

Likewise for GUUUUAUCAAAAGAUGAAACAGUGGGUGAACGAGGACCGGUACGGCCGCCACUCGGACAUGAGGAUCACCCAUGUCCAUGUGAAA [AstrosExyTryA#13] ?
0

Likewise for AGGUGGGUCUGAAGGAGCGCGAUAACAUGAGGAUCACCCAUGUUAAAUGGUACAUGAUACUCGCAGGUAGGUCGCAGUAAAACCA [Same State Arginine B GF 12] ?
1

Likewise for ACAUGAGGAUCACCCAUGUAAGGUCUUGAUACCAGACGCGAAGUAGUCCCUUGGCAGCAAAUACGUGAGGGUCGCACAUGUGUAA [mcnmullin] ?
0

Likewise for UUAAUCAUUGAUGAAAACAUUAAUGCAGAAGGAGCGUGAUAAAACACAGGUAGGUCGCUGAAGGGAACAUGAGGAUCACCCAUGU [AstrosSSArgA#16] ?
0

Likewise for UACAUGAGGAUCACCCAUGUAUGAAGGGAUACCAGCGACAGUAAGCGCCCUUGGCAGCCCGUGAAUAAAGGGUGGGUAAAAUAGU [Exclusion Theophyline A GF 3] ?
0

Likewise for GCGGAAUAAUCGGCCGCCACUAUGAUAUAGGAAACUAUAACAUGAGGAUCACCCAUGUAUCCUCAUAGGACCGGGAUUAAAACGC [TrypB - CS] ?
1

Likewise for GUACAUGAGGAUCACCCAUGUAUAGUUGAAGGAGCGACCGGAGGGUCAGGUAGGUCGCAGCACAUGGCGUAAACCCGUGUAUGCC [#1 Exclusion - Arginine A Attempt #24 (Inspired by Pi)] ?
0

Likewise for GAUUGGAUUUGAAGGAGCGUCGAAAAUGGGUAAACAUGAGGAUCACCCAUGUAAAGGGAACGACAGGUAGGUCGCAAAUUUAAUC [AstromonsSSArgB#31] ?
1

Values compiled from the supplement of paper PMC9170038.
